System: SK-MEL-5 melanoma
experiment description: NCI-60 one-dose screen, 48 h
measurement conditions: 10 µM unless noted
About 83,000 compounds went through this panel and 20% of them were active in at least one assay; those are over-represented in the sample as a whole. Activity calls are given as the source filed them. The calls were made as follows: active = growth percent below 10; inactive = the rest.
Return exactly one item of active, inactive

[[record]]
molecule = "CC(C)(C)OC(=O)CC1(O)CCCCC1"
assigned_class = "inactive"

[[record]]
molecule = "CCOCCC(=O)O"
assigned_class = "inactive"

[[record]]
molecule = "NNc1ncnc2cccc(Cl)c12"
assigned_class = "inactive"

[[record]]
molecule = "N=c1sc2ccccc2n1CC(=O)O"
assigned_class = "inactive"


Which outcome was entered for the molecule `CSc1nc(N)c(N)c(N)n1` in this test?
inactive

Which outcome was entered for the molecule `COC(=O)c1nc(N)nc(C(=O)OC)c1C(=O)c1ccc(F)cc1` in this test?
inactive

Which outcome was entered for the molecule `O=C(O)c1cc(=O)[nH]c(=O)[nH]1` in this test?
inactive

Which outcome was entered for the molecule `CCOc1ccc(/C=C\C(=O)O)cc1` in this test?
inactive

Which outcome was entered for the molecule `COc1ccc(S(=O)(=O)c2ccc(F)cc2)cc1` in this test?
inactive

Which outcome was entered for the molecule `O=C(O)C#Cc1ccc(Cl)cc1` in this test?
inactive

Which outcome was entered for the molecule `CC(=O)Oc1cc(C)c(OC(C)=O)c(C)c1C` in this test?
inactive

Which outcome was entered for the molecule `COC(=O)CCOc1ccccc1` in this test?
inactive

Which outcome was entered for the molecule CC1CCC(=O)N1c1ccc(N)cc1 (stereo unspecified) in this test?
inactive

Which outcome was entered for the molecule CCOC(=O)c1ccc(N2C(=O)C(Cl)(c3ccccc3)C2c2ccco2)cc1 (stereo unspecified) in this test?
inactive

Which outcome was entered for the molecule `CC(=O)Oc1ccc(C(c2ccc(OC(C)=O)cc2)c2ccccn2)cc1` in this test?
active

Which outcome was entered for the molecule `N#Cc1c(N)nc2c(c(-c3ccc(Cl)cc3)nn2-c2ccccc2)c1C#N` in this test?
inactive

Which outcome was entered for the molecule `COc1cc(Cl)ccc1C` in this test?
inactive

Which outcome was entered for the molecule `CCOC(=O)NC(N)=O` in this test?
inactive

Which outcome was entered for the molecule `Cc1cccc(Cl)c1N` in this test?
inactive

Which outcome was entered for the molecule `COc1ccc(/C=N/Nc2nc3ccccc3s2)cc1` in this test?
inactive

Which outcome was entered for the molecule COc1ccc(C(=O)C(O)c2ccc(OC)cc2)cc1 (stereo unspecified) in this test?
inactive
